Data origin: the RNAGym collection of RNA variant scans (doi:10.1101/gad.245936.114)

B1: tRNA (parent)
chain: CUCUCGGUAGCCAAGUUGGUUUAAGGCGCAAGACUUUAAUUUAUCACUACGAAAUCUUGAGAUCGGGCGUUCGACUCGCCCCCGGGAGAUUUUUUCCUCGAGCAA

- Variants of: B1
- assay-summary: nonsense suppression (GFP-seq) (ratio to wild type); higher = more function; SUP4oc tRNA, yeast GFP reporter sort-seq
This sample holds only a part of the variants without activity.
attribute-measured: nonsense suppression
Provide a numeric answer; units are not to be included.

Request: Find the recorded nonsense suppression belonging to G15C C34A C82G and report it.
Response: 0.816

Request: Find the recorded nonsense suppression belonging to C3U C81U and report it.
Response: 0.0941

Request: Find the recorded nonsense suppression belonging to G66U C75A and report it.
Response: 0.704

Request: Find the recorded nonsense suppression belonging to G61U U63G and report it.
Response: 0.232

Request: Find the recorded nonsense suppression belonging to A54C A87G and report it.
Response: 0.59

Request: Find the recorded nonsense suppression belonging to G7C A9U and report it.
Response: 0.0428

Request: Find the recorded nonsense suppression belonging to G78A G84U and report it.
Response: 0.0325

Request: Find the recorded nonsense suppression belonging to A9C U20C C75A and report it.
Response: 0.566

Request: Find the recorded nonsense suppression belonging to A23G A30U and report it.
Response: 0.0397
